# collection of pKi values tested on HIV-1 protease (Human immunodeficiency virus type 1 group M subtype B, UniProt P04585)
Please note pKi is a logarithmic value: minus log10 of concentration in mol/L. Answer with that number alone.

{"Molecule": "COc1ccc2c(c1)OCCCC/C=C\\CN(C[C@@H](O)[C@H](Cc1ccccc1)NC(=O)O[C@H]1CO[C@H]3OCC[C@H]31)S2(=O)=O [Inhibitor 14e]", "Readout Name": "pKi", "Recorded Value": 10.77}

Consider now this further molecule.
**Q:** Returns the measured pKi for the input molecule. Input: COc1ccc2c(c1)OCCCCCCCN(C[C@@H](O)[C@H](Cc1ccccc1)NC(=O)O[C@H]1CO[C@H]3OCC[C@H]31)S2(=O)=O [Inhibitor 15d]
**A:** 10.10
